The values you see were collected from ChEMBL document CHEMBL1124378.

# measuredTarget: D(2) dopamine receptor (Bos taurus)
# experimentalDetails: Inhibition of [3H]spiperone binding to Dopamine receptor D2 from calf caudate
Consider the cut-off 5 µM. If the recorded IC50 is strictly smaller, the label is MET; if not, the label is NOT MET.

### Prompt Strictly below 5 µM in IC50? Cn1cc2c(n1)Nc1ccc(F)cc1N=C2N1CCNCC1
### Response NOT MET

### Prompt Strictly below 5 µM in IC50? CCCn1cc2c(n1)Nc1ccc(F)cc1N=C2N1CCN(C)CC1
### Response MET

### Prompt Strictly below 5 µM in IC50? Cc1c2c(nn1C)C(N1CCN(C)CC1)=Nc1cc(F)ccc1N2
### Response NOT MET

### Prompt Strictly below 5 µM in IC50? Cc1ccc2c(c1)Nc1nn(C)cc1C(N1CCN(C)CC1)=N2
### Response NOT MET

### Prompt Strictly below 5 µM in IC50? CCn1cc2c(n1)Nc1cc(Cl)c(Cl)cc1N=C2N1CCN(C)CC1
### Response MET

### Prompt Strictly below 5 µM in IC50? CN1CCN(C2=Nc3ccccc3Nc3nn(C)cc32)CC1
### Response NOT MET

### Prompt Strictly below 5 µM in IC50? Cn1cc2c(n1)Nc1ccc(Cl)cc1N=C2N
### Response NOT MET

### Prompt Strictly below 5 µM in IC50? CN(C)CCNC1=Nc2cc(F)ccc2Nc2nn(C)cc21
### Response NOT MET

### Prompt Strictly below 5 µM in IC50? Cn1cc2c(n1)Nc1ccc(F)cc1N=C2N1CCCCC1
### Response NOT MET

### Prompt Strictly below 5 µM in IC50? CN1CCN(C2=Nc3ccc(Cl)cc3Nc3nn(C)cc32)CC1
### Response NOT MET

### Prompt Strictly below 5 µM in IC50? CN1CCN(C2=Nc3ccccc3Nc3c2cnn3C)CC1
### Response NOT MET
